Provenance of the data: PubChem BioAssay AID488890

Assay: growth inhibition of non-replicating M. tuberculosis (AID 488890);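 note: plate controls were DMSO cells for no effect and high antibiotic wells for full effect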
Conditions: Mycobacterium tuberculosis non-replicating, at 25 µM, stronger effect = higher value
Out of some 320,000 compounds screened, about 1,300 (0.41%) were called active. Another 3% or so got no clear call; they are omitted. Only a sample is shown. Entries with a potency or affinity are not part of this list.
Hi there, I'd appreciate the recorded inhibition for every entry that follows.
Answers are plain numbers, in %.

| COMPOUND | inhibition / % |
| --- | --- |
| COc1cccc(OCCNC(=O)c2ccc(C)cc2)c1 | 37.6 |
| COC(=O)c1ccccc1NC(=O)CN1C(=O)CSC1=O | -0.76 |
| COc1ccccc1/C=N/Nc1cc(C)nc(N2CCOCC2)n1 | 8.69 |

Give inhibition for each of the items listed below.
1. COc1ccccc1-c1cc(C(F)(F)F)nc(S(=O)(=O)CCCC(=O)O)n1
2. Cc1ccc(C(C)C)cc1OCC(=O)NNC(=O)Nc1ccccc1

# output
44.3
-5.51

----------
Assay: growth inhibition of non-replicating M. tuberculosis (AID 488890);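 note: plate controls were DMSO cells for no effect and high antibiotic wells for full effect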
Conditions: Mycobacterium tuberculosis non-replicating, at 25 µM, stronger effect = higher value
Hit rate of the full screen: of about 320,000 compounds, about 1,300 (0.41%) were called active. Not shown: some 3% with an inconclusive outcome. Only a sample is shown. Entries with a potency or affinity are not part of this list.
Hi there, I'd appreciate the recorded inhibition for every entry that follows.
Answers are plain numbers, in %.

For orientation, consider the following solved cases.
| COMPOUND | QUANTITY KIND | UNIT OF MEASURE | RECORDED RESULT |
| --- | --- | --- | --- |
| Cc1ccc(S(=O)(=O)NC(CC(C)C)C(=O)Nc2ccncc2)cc1 (stereo not drawn) | inhibition | % | 0.09 |
| CNC(=O)n1cc(C)c(-c2cccs2)n1 | inhibition | % | 3.54 |

Continue with the next compound.
# input Look at this compound and give its reported inhibition. `COc1ccc(Cl)c2sc(N(CCN(C)C)C(=O)CCS(=O)(=O)c3ccc(C)cc3)nc12`
# output 26.4

----------
Assay: growth inhibition of non-replicating M. tuberculosis (AID 488890);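 note: plate controls were DMSO cells for no effect and high antibiotic wells for full effect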
Settings: Mycobacterium tuberculosis non-replicating, at 25 µM, stronger effect = higher value
The campaign covered roughly 320,000 compounds. About 1,300 (0.41%) were called active. About 3% were inconclusive and are not listed. The list is a sample of the results. Potency and affinity values are given separately.
Hi there, I'd appreciate the recorded inhibition for every entry that follows.
Numbers only, in %.

For orientation, consider the following solved cases.
| MOLECULE | UNIT OF MEASURE | inhibition |
| --- | --- | --- |
| COC(=O)CN(C#N)c1nc(OC)nc(N(C)C)n1 | % | 2.2 |
| NS(=O)(=O)c1ccc(CCNC(=O)C2COc3ccccc3O2)cc1 (stereo unspecified) | % | 7.64 |
| CCOC(=O)C1=NN(C(=O)c2ccccc2)C(O)(c2ccc(C)cc2)C1 (stereo unspecified) | % | 73.7 |
| Cc1nn(-c2ccccc2)c(C)c1/C=N/NC(=O)c1cc(-c2cccs2)[nH]n1 | % | 47.5 |
| C/C(=N\Nc1nc2ccccc2[nH]1)c1ccccn1 | % | 78.5 |
| CCC(CC)c1nnc(NC(=O)c2ccco2)s1 | % | 14.7 |

Give inhibition for each of the items listed below.
1. Nc1nc(SCCO)[nH]c(=O)c1NC(=O)c1ccco1
2. Cc1nn(CC(=O)N2CCc3ccccc3C2)c(C)c1Cl
3. CCCOc1ccc(C(=O)CCNc2cccc(Cl)c2)cc1
4. Cn1c(=O)[nH]c(=O)c2c1nc(N)n2Cc1ccccc1
5. Cc1ccc(S(=O)(=O)N(C)C)cc1NC(=O)c1c(-c2c(F)cccc2Cl)noc1C
6. c1ccc(CN2CCN(Cc3nnc(-c4ccccc4)o3)CC2)cc1

# output
[-5.12, 10.6, 74.8, -16.3, -9.18, 30.8]

Give inhibition for each of the items listed below.
1. Cc1[nH]c2ccc(C(=O)NCCCN(C)C3CCCCC3)cc2c1C
2. COc1ccc(C(=O)OCC(=O)c2ccc(Br)s2)c(OC)c1
3. CSc1ccc(NC(=O)NCCCN2CCN(c3ccccc3F)CC2)cc1
4. COc1ccc(NC(=O)Nc2cccc(NC(C)=O)c2)c(OC)c1

# output
1. 7.44
2. 66.5
3. 50.5
4. 15.4

Give inhibition for each of the items listed below.
1. COC(=O)C1=NN(C(=O)c2cccc(Br)c2)C(O)(c2ccc(Cl)cc2)C1 (stereo unspecified)
2. CCCc1nc2oc3c(NCCOCCO)ncnc3c2c2c1COC(C)(C)C2
3. CC(=O)Oc1ccc([C@@H]2COc3c(ccc4c3C=CC(C)(C)O4)C2)c(OC(C)=O)c1

# output
1. 75.6
2. -8.1
3. -2.73

Give inhibition for each of the items listed below.
1. COC(=O)C1=NN(C(=O)c2ccccc2)C(O)(c2ccc([N+](=O)[O-])cc2)C1 (stereo unspecified)
2. COc1ccc(C(=O)OCC(=O)c2ccc(Cl)s2)c(OC)c1OC
3. COc1ccc(S(=O)(=O)NC(CC(=O)NCCc2ccc(OC)c(OC)c2)c2ccco2)cc1 (stereo unspecified)
4. COc1ccc(OC)c(NCc2nnc(-c3ccccc3)o2)c1
5. O=[N+]([O-])c1ccc(CSc2nnc3ccccn23)cc1
6. O=C(c1ccc2c(c1)N(Cc1ccccc1F)C(=O)c1ccccc1S2)N1CCOCC1
7. CCCNC(=O)N1CCN(S(=O)(=O)c2ccc3c(c2)OCCO3)CC1
8. N/C(COc1ncn(-c2ccccc2)n1)=N\S(=O)(=O)c1ccccc1

# output
[21.5, 52.4, -6.87, 77, 1.79, 33.2, 1.44, 20.4]
